# test_target: photosystem II (PSII) D1 protein (Chlamydomonas reinhardtii, UniProt P07753)
# Construct: full-length D1 from intronless psbA in the chloroplast, assembled in native PSII (with D2 and other subunits) in living algal cells; D1 mutants by ep-PCR of Ala153-Ala294 region and biolistic transformation of Del1
# experiment_description: chlorophyll a fluorescence induction (OJIP), inhibition of 1-VJ (QA to QB electron transfer) in living algal cells
# condition_notes: read-out: Atrazine / I50×10^-7 M / (±SE)
readout_type: pIC50
In simple prose, pIC50 is minus the logarithm base ten of a concentration in moles per litre.

Please supply the value of reported pIC50 for the item CCNc1nc(Cl)nc(NC(C)C)n1 [Atrazine] 6.62
